# ASSAY TARGET: 5-hydroxytryptamine receptor 1A (Homo sapiens, UniProt P08908)
# Sequence (P08908 whole entry): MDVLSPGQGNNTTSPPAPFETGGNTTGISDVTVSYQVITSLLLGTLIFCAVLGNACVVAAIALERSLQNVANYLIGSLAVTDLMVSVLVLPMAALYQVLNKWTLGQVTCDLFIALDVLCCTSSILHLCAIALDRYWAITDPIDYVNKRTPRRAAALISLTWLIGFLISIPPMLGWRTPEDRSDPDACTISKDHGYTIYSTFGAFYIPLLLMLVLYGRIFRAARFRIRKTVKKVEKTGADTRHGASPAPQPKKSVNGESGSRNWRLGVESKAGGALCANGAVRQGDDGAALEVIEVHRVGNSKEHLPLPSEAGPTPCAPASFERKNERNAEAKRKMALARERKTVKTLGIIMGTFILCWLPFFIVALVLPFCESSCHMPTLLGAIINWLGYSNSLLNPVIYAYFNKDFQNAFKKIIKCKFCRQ
ASSAY METRIC: pKi
Value format note: pKi is -log10 of concentration (mol/L); just state the number.

Check 5-hydroxytryptamine receptor 1A (Homo sapiens, UniProt P08908) data and give pKi for C[C@H](CN(C(=O)c1ccc(C#N)cc1)c1ccccn1)N1CCN(c2cccc3c2OCCO3)CC1 . 8.35

* * *

# ASSAY TARGET: Alpha-1A adrenergic receptor (Rattus norvegicus)
# Sequence (P43140 whole entry): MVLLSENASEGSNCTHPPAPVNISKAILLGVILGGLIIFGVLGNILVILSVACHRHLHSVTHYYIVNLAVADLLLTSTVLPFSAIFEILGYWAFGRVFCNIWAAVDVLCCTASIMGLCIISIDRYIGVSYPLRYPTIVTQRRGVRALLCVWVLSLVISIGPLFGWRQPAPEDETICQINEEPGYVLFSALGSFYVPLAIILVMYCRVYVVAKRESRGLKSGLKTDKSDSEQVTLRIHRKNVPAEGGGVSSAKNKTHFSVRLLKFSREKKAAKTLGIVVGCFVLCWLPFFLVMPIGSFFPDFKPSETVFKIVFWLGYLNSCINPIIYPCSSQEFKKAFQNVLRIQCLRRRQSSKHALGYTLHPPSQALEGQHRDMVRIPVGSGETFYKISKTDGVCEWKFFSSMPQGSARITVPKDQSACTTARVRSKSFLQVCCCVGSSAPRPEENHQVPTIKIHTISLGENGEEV
ASSAY METRIC: Ki
Form entry: enter the amount, then its unit.

Check Alpha-1A adrenergic receptor (Rattus norvegicus) data and give Ki for C[C@H](CN(C(=O)c1ccc(C#N)cc1)c1ccccn1)N1CCN(c2cccc3c2OCCO3)CC1 . 248 nM
